Details: human;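 note: steatosis confirmed by histopathology, value is the count of indexed references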
endpoint_name: Hepatotoxicity (steatosis)
Please give the numeric answer without any surrounding text.

Consider the compound shown here: CC[C@H]1OC(=O)[C@H](C)[C@@H](O[C@H]2C[C@@](C)(OC)[C@@H](O)[C@H](C)O2)[C@H](C)[C@@H](O[C@@H]2O[C@H](C)C[C@H](N(C)C)[C@H]2O)[C@](C)(OC)C[C@@H](C)C(=O)[C@H](C)[C@@H](O)[C@]1(C)O What is its recorded Hepatotoxicity (steatosis)?
0

Also, COC(F)(F)C(Cl)Cl please.
3

Also, C[C@@H]1[C@H](O)[C@@H](C)/C=C/C=C/C=C/C=C/C=C/C=C/C=C/[C@H](O[C@@H]2O[C@H](C)[C@@H](O)[C@H](N)[C@@H]2O)C[C@@H]2O[C@](O)(C[C@@H](O)C[C@@H](O)[C@H](O)CC[C@@H](O)C[C@@H](O)CC(=O)O[C@H]1C)C[C@H](O)[C@H]2C(=O)O please.
2

Also, N[C@@H](C(=O)N[C@@H]1C(=O)N2C(C(=O)O)=C(Cl)CC[C@H]12)c1ccccc1 [LORACARBEF ANHYDROUS] please.
0

Also, COc1ccc(/C=C/C(=O)Nc2ccccc2C(=O)O)cc1OC please.
0

Also, O=[N+]([O-])O[C@H]1CO[C@H]2[C@@H]1OC[C@H]2O[N+](=O)[O-] [ISOSORBIDE DINITRATE] please.
0

Also, COC1=C(OC)C(=O)C(CCCCCCCCCCO)=C(C)C1=O please.
0

Also, O=C(OCC(O)CO)c1ccccc1Nc1ccnc2cc(Cl)ccc12 (centres undefined) please.
0

Also, CCCCCCCCCCC[C@@H](C[C@@H]1OC(=O)[C@H]1CCCCCC)OC(=O)[C@H](CC(C)C)NC=O please.
0

Also, Cc1c(O)cccc1C(=O)N[C@@H](CSc1ccccc1)[C@H](O)CN1C[C@H]2CCCC[C@H]2C[C@H]1C(=O)NC(C)(C)C please.
0

Also, CCc1nc(N)nc(N)c1-c1ccc(Cl)cc1 please.
1

Also, C[Si](C)(C)c1cccc(C(=O)C(F)(F)F)c1 please.
0

Also, Nc1ccc(/N=N/c2ccccc2)c(N)n1 please.
0

Also, O=C1NC(=S)NC(=O)C1C(=O)Nc1ccccc1 please.
0

Also, O=C1Nc2ccccc2C1(c1ccc(O)cc1)c1ccc(O)cc1 please.
0

Also, Cn1cnc([N+](=O)[O-])c1Sc1ncnc2nc[nH]c12 please.
3

Also, NC(=O)OC[C@@H]1[C@H](NC(=O)/C(=N\OCC(=O)O)c2csc(N)n2)C(=O)N1S(=O)(=O)O please.
0

Also, O=c1[nH]c2ccccc2n1CCCN1CCN(C(c2ccccc2)c2ccccc2)CC1 [OXATOMIDE] please.
0

Also, O=C1CC[C@@]2(O)[C@H]3Cc4ccc(O)c5c4[C@@]2(CCN3CC2CC2)[C@H]1O5 [NALTREXONE] please.
0

Also, C(=N\NC1=NCCN1)/c1c2ccccc2c(/C=N/NC2=NCCN2)c2ccccc12 please.
0

Also, COc1cc(Cc2cnc(N)nc2N)cc(OC)c1OC please.
0

Also, CCOC(=O)n1ccn(C)c1=S please.
2

Also, CC(=O)c1ccc(S(=O)(=O)NC(=O)NC2CCCCC2)cc1 [ACETOHEXAMIDE] please.
0

Also, CC(=O)N[C@@H]1[C@H](Oc2c3cc4cc2Oc2ccc(cc2Cl)[C@@H](O[C@@H]2O[C@@H](CO)[C@@H](O)[C@H](O)[C@@H]2NC(C)=O)[C@@H]2NC(=O)[C@H](NC(=O)[C@@H]4NC(=O)[C@H]4NC(=O)[C@@H](Cc5ccc(c(Cl)c5)O3)NC(=O)[C@H](N)c3ccc(O)c(c3)Oc3cc(O)cc4c3)c3ccc(O)c(c3)-c3c(O[C@H]4O[C@H](CO)[C@@H](O)[C@@H](O)[C@@H]4O)cc(O)cc3[C@@H](C(=O)O)NC2=O)O[C@@H](CO)[C@@H](O)[C@@H]1O please.
0

Also, CN1CCC(=C2c3ccccc3CCc3sccc32)CC1 please.
0

Also, CS[C@H]1SC[C@H]2C(=O)N(C)[C@@H](C(C)C)C(=O)OC[C@@H](NC(=O)c3cnc4ccccc4n3)C(=O)N[C@@H](C)C(=O)N(C)[C@@H]1C(=O)N(C)[C@@H](C(C)C)C(=O)OC[C@@H](NC(=O)c1cnc3ccccc3n1)C(=O)N[C@@H](C)C(=O)N2C please.
0

Also, O=C(NCN1CCOCC1)c1cnccn1 [MORINAMIDE] please.
0

Also, CC(C)Cc1ccc(CC(=O)O)cc1 please.
0

Also, CC(COc1ccccc1)NN (centres undefined) please.
0

Measured values drawn from ChEMBL document CHEMBL3137667 for this set.
